Assay: Terminal half life in Wistar rat at 30 mg/kg, iv
Format: ADME, organism-based
Conditions: Wistar, in vivo, read-out: beta t1/2 (converted)
Property: half-life (h)
One number for each entry, in h.

[ask] // half-life lookup, key: `CC(=O)NC[C@H]1CN(c2cc(F)c(N3CCC4(OCCO4)[C@@H](F)C3)c(F)c2)C(=O)O1`
[reply] 7.1

----------
Test: Volume of distribution in Wistar rat at 30 mg/kg, iv
Format: ADME, organism-based
Conditions: Wistar, in vivo, read-out: Vd
Property: Vd (L/kg)
One number for each entry, in L/kg.

[ask] // Vd lookup, key: `CC(=O)NC[C@H]1CN(c2cc(F)c(N3CCC4(OCCO4)[C@@H](F)C3)c(F)c2)C(=O)O1`
[reply] 9.66

----------
System: Haemophilus influenzae
Test: Antibacterial activity against Haemophilus influenzae […] ATCC 35054 incubated for 18 hrs by CLSI protocol based two-fold serial agar dilution method
Type: functional
Please go through the items and note down their MIC.

# Compound, MIC
data = [
    ("CC(=O)NC[C@H]1CN(c2ccc(N3CCC4(CC3)NCCS4)c(F)c2)C(=O)O1", "8 µg/mL"),
    ("CC(=O)NC[C@H]1CN(c2ccc(N3CCC4(CC3)COCCO4)c(F)c2)C(=O)O1", "> 16 µg/mL"),
    ("CC(=O)NC[C@H]1CN(c2ccc(N3CCC4(CC3)COCCCO4)c(F)c2)C(=O)O1", "> 16 µg/mL"),
    ("CC(=O)NC[C@H]1CN(c2ccc(N3CCOCC3)c(F)c2)C(=O)O1 [LINEZOLID]", "4 µg/mL"),
    ("CC(=O)NC[C@H]1CN(c2ccc(N3CCC4(CC3)COCO4)c(F)c2)C(=O)O1", "> 16 µg/mL"),
]

Give one value of MIC per listed compound.
1. CC(=O)NC[C@H]1CN(c2ccc(N3CCC4(CC3)OCCCCO4)c(F)c2)C(=O)O1
2. CC(=O)NC[C@H]1CN(c2ccc(N3CCC4(CC3)NCCO4)c(F)c2)C(=O)O1
3. O=C1O[C@@H](Cn2ccnn2)CN1c1cc(F)c(N2CCC3(OCCO3)C(F)C2)c(F)c1 (stereo partly specified)
4. O=C1O[C@@H](Cn2ccnn2)CN1c1ccc(N2CCC3(OCCO3)C(F)C2)c(F)c1 (stereo partly specified)

[reply]
["> 16 µg/mL", "8 µg/mL", "> 16 µg/mL", "> 16 µg/mL"]

----------
System: Staphylococcus aureus
Test: Antibacterial activity against methicillin-resistant Staphylococcus aureus Sta-032 incubated for 18 hrs by CLSI protocol based two-fold serial agar dilution method
Assay type: functional
Property: MIC (µg/mL)
Answers are plain numbers, in µg/mL.

Here is how some molecules turned out for MIC.
# Molecule, Observed Measurement
rows = [
    ("CC(=O)NC[C@H]1CN(c2ccc(N3CCC4(CC3)SCCS4)c(F)c2)C(=O)O1", 4),
    ("CC(=O)NC[C@H]1CN(c2ccc(N3CCC4(CC3)OCC(C)O4)c(F)c2)C(=O)O1 (some centres undefined)", 8),
    ("CC(=O)NC[C@H]1CN(c2ccc(N3CCC4(CC3)NCCS4)c(F)c2)C(=O)O1", 4),
]

Next:
[ask] // MIC lookup, key: `CC(=O)NC[C@H]1CN(c2ccc(N3CCC4(CC3)COCCO4)c(F)c2)C(=O)O1`
[reply] 4

The reported numbers originate from ChEMBL document CHEMBL5113436.
